# method-description: self-splicing fitness, log relative to wild type (ln ratio); higher = more splicing; Tetrahymena group I intron in knt gene, E. coli kanamycin selection, DiMSum; sequences stand for … in CUCUCU…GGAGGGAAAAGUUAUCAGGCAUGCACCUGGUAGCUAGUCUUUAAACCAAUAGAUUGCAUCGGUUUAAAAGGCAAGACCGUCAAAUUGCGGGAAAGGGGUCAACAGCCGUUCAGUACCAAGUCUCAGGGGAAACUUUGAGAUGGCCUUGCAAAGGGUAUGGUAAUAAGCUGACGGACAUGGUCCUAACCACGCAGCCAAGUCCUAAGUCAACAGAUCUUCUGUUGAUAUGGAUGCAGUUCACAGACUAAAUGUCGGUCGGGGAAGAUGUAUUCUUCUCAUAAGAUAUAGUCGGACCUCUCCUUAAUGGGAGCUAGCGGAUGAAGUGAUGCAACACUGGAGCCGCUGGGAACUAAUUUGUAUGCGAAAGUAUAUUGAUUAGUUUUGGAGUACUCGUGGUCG;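 also: selection with 25 µg/mL kanamycin versus none on LB agar overnight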
# test-conditions: 30 °C
Measured self-splicing fitness (ln) by item
reported-metric: self-splicing fitness (ln)

>>> val("GCGGAGCAAUAUUACGGACU")
-3.06
>>> val("GGUGAGCAAUAUUACGACCG")
-0.141
>>> val("ACUAAGCAAUAUUACGGGAC")
-2.94
>>> val("GCUCAGCAAUAUUACGGACA")
-1.25
>>> val("CUGUAGCAAUAUUACGCUUG")
-2.62
>>> val("CUGGAGCAAUAUUACGCCUG")
-1.22

Where do these numbers come from? They come from the supplement of paper PMC7877785.
